- Substrate: PET
- PROCEDURE_DETAILS: Proxy for plastic degradation [Released monomer concentration (HPLC/LC-MS) (TPA)]
- DETAILS: pH 9
MEASURED_PARAMETER: Proxy for plastic degradation (nM)
Give the number; nM is assumed, so skip it.

Provide measured Proxy for plastic degradation value, entry: unnamed (protein) NPYARGPNPTAASLEASAGPFTVRSFTVSRPSGYGAGTVYYPTNAGGTVGAIAIVPGYTARQSSIKWWGPRLASHGFVVITIDTNSTLDQPSSRSSQQMAALRQVASLNGTSSSPIYGKVDTARMGVMGWSMGGGGSLISAANNPSLKAAAPQAPWDSSTNFSSVTVPTLIFACENDSIAPVNSSALPIYDSMSRNAKQFLEINGGSHSCAASGNSNQALIGKKGVAWMKRFMDNDTRYSTFACENPNSTRVSDFRTANCS
0

Provide measured Proxy for plastic degradation value, entry: unnamed (protein) MNFPRASRLMQAAVLGGLMAVSAAATAQTNPYARGPNPTAASLEASAGPFTVRSFTVSRPSGYGAGTVYYPTNAGGTVGAIAIVPGYTARQSSIKWWGPRLASHGFVVITIDTNSTLDQPSSRSSQQMAALRQVASLNGTSSSPIYGKVDTARMGVMGWSMGGGGSLISAANNPSLKAAIPQAPWDSSTNFSSVTVPTLIFACENDSIAPVNSSALPIYDSMSRNAKQFLEINGGSHSCANSGNSNQALIGKKGVAWMKRFMDNDTRYSTFACENPNSTRVSDFRTANCS
10.5

Source listed as the PETadex activity labels (doi:10.1002/cbic.201800097).
